Test system: NCI/ADR-RES ovarian
experimentalProtocol: NCI tumour cell line growth inhibition, 48 h; in the data active = GI50 below about 0.43 µM; inactive = the rest
// one of 1.0 = active, 0.0 = inactive, no free text

These solved cases illustrate the format of a correct answer.
1. COc1n[n+]([O-])c(C)cc1[N+](=O)[O-]	0.0
2. Cc1cccc2c3c(sc12)C(c1ccc(Cl)cc1)C(C#N)=C(/N=C/c1ccc(Cl)cc1)O3 (stereo not given)	1.0
3. COC(=O)C1=CN(CC2=CC(=O)C(C)=CC2=O)C=C(C(=O)OC)C1c1cccc(OC)c1OC	0.0
4. c1ccc(-c2nc(Nc3ccc(-c4nc5ccccc5[nH]4)cc3)nc(N3CCOCC3)n2)cc1	0.0

Query: Assay outcome for COc1cc(C)cc2c1OC(c1ccccc1)CC2=O (stereo not given) : what was it?
Result: 0.0

Query: Hi team, can someone confirm the assay call for COC(=O)c1c2c(c(C)[n+]([O-])c1C)C(=O)C=C(NCc1ccc(Cl)cc1)C2=O ?
Result: 1.0

====

TGI: recorded values
System: A498 renal
experimentalProtocol: NCI tumour cell line growth inhibition, 48 h

Example entries begin here.
1) CC(=NNC(=S)Nc1ccccc1C)c1cccc(C(C)=NNC(=S)Nc2ccccc2C)n1	> 100 µM
2) COc1ccc2c(c1)c(Cc1c(C)n(C)c3ccc(OC)cc13)c(C)n2C	> 100 µM
3) COc1n[n+]([O-])c(C)cc1[N+](=O)[O-]	46.3 µM

Query: Give TGI for the following compound: CC1(C)OC2C(CO)OC(n3ccc(=O)[nH]c3=O)C2O1 (configuration not stated)
Result: > 100 µM

Query: For the compound O=C(CNC(=O)OCc1ccccc1)NCCCCC(NC(=O)OCc1ccccc1)C(=O)O (configuration not stated) , give its measured TGI value.
Result: > 100 µM

Query: Please report TGI for the following compound: C/C(=N\NC(N)=S)c1ccc(/C(C)=N/NC(N)=S)cc1
Result: > 100 µM

Query: Tell me its TGI given Cc1ccc2c(c1)C(C1Cc3c(C)cccc3C1=O)OC2=O (configuration not stated) as the entry.
Result: > 100 µM

====

System: MDA-MB-231 breast
experimentalProtocol: NCI tumour cell line growth inhibition, 48 h
Decision: TGI compared against 30 µM; not below it gives TRUE, below it gives FALSE.

1. CN(C)c1ccc(C(C#N)N2CCCN(C(C#N)c3ccc(N(C)C)cc3)C2c2ccc(N(C)C)cc2)cc1 (stereo unspecified)	TRUE
2. COc1nccc(-c2c(-c3ccc(F)cc3)ncn2C2CCC(O)CC2)n1 (stereo unspecified)	TRUE
3. C=CCOc1cc2c(cc1C(C)c1ccc(OC)cc1)OCO2 (stereo unspecified)	TRUE
4. COc1ccc(/C=C/C(=O)NCC(NC(=O)/C=C/c2ccc(OC)c(OC)c2)C(=O)O)cc1OC (stereo unspecified)	TRUE
5. N#Cc1c(NC(=O)c2cccs2)[n+]([O-])c2ccccc2[n+]1[O-]	TRUE

Query: API: above_or_equal(metric=TGI, cutoff=30 µM) for item N#Cc1c(-c2ccccc2)c(C#N)c(=O)n(NS(=O)(=O)c2ccccc2)c1O
Result: TRUE

Query: Hi, just wondering whether NC(=S)N/N=C/c1cc(CN2CCOCC2)c(N)cn1 shows TGI of 30 µM or higher.
Result: TRUE

Query: Please tell me: is the molecule Cc1cccc2c3c(sc12)C(c1ccc(Cl)cc1)C(C#N)=C(/N=C/c1ccc(Cl)cc1)O3 (stereo unspecified) at or over 30 µM in terms of TGI?
Result: FALSE

Query: Test whether the molecule Oc1ccccc1C=Nc1ccc(Oc2ccc(Cl)cc2)c(Cl)c1 records TGI of 30 µM or higher.
Result: TRUE
